Values were extracted from patent US20250270319A1.

Molecular target: T1, recombinant cynomolgus CD33 protein (NovoProtein) (cynomolgus)
T1 construct: Bought protein; also called cyno CD33
T1 sequence (chain, as listed by the source limits assumed): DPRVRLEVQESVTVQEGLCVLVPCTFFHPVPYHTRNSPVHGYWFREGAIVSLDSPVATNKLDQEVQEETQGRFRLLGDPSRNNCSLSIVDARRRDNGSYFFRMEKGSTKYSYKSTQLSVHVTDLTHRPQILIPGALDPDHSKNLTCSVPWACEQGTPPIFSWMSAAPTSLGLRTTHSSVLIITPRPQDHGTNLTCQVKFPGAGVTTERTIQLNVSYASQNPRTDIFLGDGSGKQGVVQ
Assay: ELISA, plate coated with recombinant CD33
observation type: Relative potency (human/cyno)
Could you keep your reply to the number by itself?

Reference set (2 entries):
anti-CD33 antibody 6C7H48 (antibody, V domains shown, VH/VL only) VH: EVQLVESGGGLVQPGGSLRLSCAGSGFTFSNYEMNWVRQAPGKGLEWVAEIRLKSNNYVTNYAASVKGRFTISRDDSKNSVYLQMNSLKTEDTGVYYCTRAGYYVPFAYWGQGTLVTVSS VL: QPMLTQSPSASASLGASVKLTCTLSSQHSTYTIEWYQQQPGKGPRYLMELKKEGSHSTGDGIPDRFSGSSSGAERYLTISSLQSEDEADYYCGVGLTIKEQFVYVFGGGTKLTVL | 0.14
anti-CD33 antibody 6C7H47 (antibody, V domains shown, VH/VL only) VH: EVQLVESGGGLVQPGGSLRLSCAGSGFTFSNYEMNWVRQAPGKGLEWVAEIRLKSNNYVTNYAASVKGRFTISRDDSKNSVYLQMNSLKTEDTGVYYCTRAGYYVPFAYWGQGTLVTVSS VL: QLMLTQSPSASASLGASVKLTCTLSSQHSTYTIEWYQQQPGKGPRYLMELKKEGSHSTGDGIPDRFSGSSSGAERYLTISSLQSEDEADYYCGVGHTIKEQFVYEFGGGTKLTVL | 0.52

Answer with the recorded Relative potency (human/cyno) for the binder listed here: anti-CD33 6C7 chimeric antibody (antibody, V domains shown, detected with anti-human IgG; also called 6C7 Chimeric Ab) VH: EVKLEESGGGLVQPGGSMKLSCVGSGFTFSNYCMNWVRQSPEKGLEWVAEIRLKSNNYVTNYVESVKGRFTISRDDSKSRVYLQMNNLRGEDTGFYYCTRDGYYVPFAYWGQGTLVTVSA VL: QLVLTQSSSASFSLGASAKLTCTLSSQHSTYTIEWYQQQPLKPPKYVMELKKDGSHSTGDGIPDRFSGSSSGADRYLSISNIQPEDEAIYICGVGDTIKEQFVYVFGGGTKVTVL
0.06
